molecules and their reported z-score
molecular target: NADPH oxidase 5 (Homo sapiens) (UniProt Q96PH1); assay: NOX5-dependent H2O2 signal modulators, primary screen, NOX inhibitor project, cell-based, HEK293-NOX5, Amplex Red fluorescence (AID 1161); details: HEK293-NOX5, ionomycin, 45 min, higher = more signal
Sequence (Q96PH1 whole entry, looked up): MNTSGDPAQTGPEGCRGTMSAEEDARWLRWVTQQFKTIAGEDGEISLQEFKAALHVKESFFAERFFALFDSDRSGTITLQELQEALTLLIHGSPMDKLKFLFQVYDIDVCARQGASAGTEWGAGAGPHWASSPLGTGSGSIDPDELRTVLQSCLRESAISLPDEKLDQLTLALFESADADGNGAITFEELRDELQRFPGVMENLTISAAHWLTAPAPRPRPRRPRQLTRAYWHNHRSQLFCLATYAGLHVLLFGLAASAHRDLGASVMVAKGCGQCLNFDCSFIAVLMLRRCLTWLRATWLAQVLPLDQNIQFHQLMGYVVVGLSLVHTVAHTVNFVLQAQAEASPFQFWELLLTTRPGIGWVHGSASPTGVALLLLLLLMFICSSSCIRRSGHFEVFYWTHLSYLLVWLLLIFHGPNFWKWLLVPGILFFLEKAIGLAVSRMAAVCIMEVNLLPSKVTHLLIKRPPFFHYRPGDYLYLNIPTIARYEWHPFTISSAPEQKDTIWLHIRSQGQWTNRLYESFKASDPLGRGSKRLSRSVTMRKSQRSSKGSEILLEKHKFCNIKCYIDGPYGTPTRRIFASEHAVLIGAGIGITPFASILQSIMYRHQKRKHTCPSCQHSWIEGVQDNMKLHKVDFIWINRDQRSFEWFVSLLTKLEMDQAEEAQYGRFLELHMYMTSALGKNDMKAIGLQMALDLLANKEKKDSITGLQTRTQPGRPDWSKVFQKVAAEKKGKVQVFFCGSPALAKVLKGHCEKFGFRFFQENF
# answer = number (no unit)

Here's what some known entries look like.
C[C@@H]1CC[C@H]2C(=O)O[C@@H](Cc3ccccc3)CN2[C@H]1c1ccc(Br)cc1; -0.621
CC(C)CCN1CCc2nc(COc3ccccc3)c3c(c2C1)CO[C@@H](C)C3; 0.242
COC(=O)[C@H](C)NC(=O)CCC1CC(OC(=O)NCCc2ccc(F)cc2)CC2(CCCC(COC(=O)NCCC(C)C)O2)O1 (some centres undefined); -0.385

Now turn to the next molecule.
z-score reading for CC(C)C[C@H](NC(=O)CCC1CC(OC(=O)NCc2cccc3ccccc23)CC2(CCCC(COC(=O)NCc3ccccc3)O2)O1)C(=O)NCC(c1ccccc1)c1ccccc1 (some centres undefined) : -0.0969

----------
assay: binders of probe aFGF10 on microarray, primary screen, stem cell growth factor project, biochemical, small-molecule microarray, fluorescence 635/667 (AID 1071); conditions: higher = more signal;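 further: score merges 667 nm spot intensity and signal to noise from triplicate slides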
endpoint: composite z-score
Field format: numeric only.

// below: answered molecules
C=CC1=C[C@H](O)[C@@H]2O[C@@H]2C12OCCCO2; 0.206
O=C1[C@H]2[C@H]3[C@H](O)[C@H](O)CC(=NOC[C@@H](O)COCc4ccco4)[C@@H]3CC[C@H]2C(=O)N1C[C@@H]1CCCO1; -0.32
COC(=O)CC=C[C@@H](C)[C@H](OCc1cccc(-c2ccccc2)c1)C1CCCCC1; -0.208
COC(=O)CC=C[C@@H](C)[C@@H](C=NOC[C@@H](O)[C@H]1O[C@@H]2OC(C)(C)O[C@@H]2[C@H]1O)NS(=O)(=O)c1ccc(C)cc1; 0.347
CCOC(=O)[C@H](Cc1ccccc1)NC(=O)CCC1CC(OC(=O)NCc2cccc3ccccc23)CC2(CCCC(COC(=O)NCCC(C)C)O2)O1 (stereo partly specified); 0.0687

// composite z-score lookup, molecule = CC(=O)OC[C@H]1O[C@H](CC=NO[C@H](C)c2cn([C@H](CO)Cc3ccccc3)nn2)C=C[C@@H]1OC(C)=O , result: 0.541

Consider CC(C)C[C@H](NC(=O)CCC1CC(OC(=O)NCc2cccc3ccccc23)CC2(CCCC(COC(=O)NCc3ccccc3)O2)O1)C(=O)NCC(c1ccccc1)c1ccccc1 (stereo partly specified) . Its measured composite z-score is 0.618

Briefly, composite z-score measured for COc1ccc(O[C@H]2C=C[C@@H](c3ccccc3)O[C@@H]2COC(=O)CCC(C)=NO[C@@H]2O[C@H](COC(C)=O)[C@@H](OC(C)=O)[C@H](OC(C)=O)[C@H]2OC(C)=O)cc1 : 0.608

----------
composite z-score listing for selected molecules.
test system: Neuregulin-1 EGF-like domain; experiment: binders of neuregulin-1 EGF-like domain, primary screen, biochemical, small-molecule microarray, 635 nm fluorescence (AID 1081); conditions: small-molecule microarray binding, higher = more signal;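 further: binding of the protein to compounds printed on small-molecule microarray slides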

Take a look at these entries with their results.
COC(=O)C1=C(C)N(Cc2ccccc2)[C@]23O[C@](C(=O)OC)(C(=O)N2[C@@H]1c1ccccc1)C(C(=O)OC)=C3C(=O)OC; 1.21
C[C@H]1CC[C@H]2C(=O)OC(CO)CN2[C@@H]1c1ccc(Br)cc1 (stereo partly drawn); 0.374

Could you now consider this next molecule?
The molecule identified as CO[C@@H]1COC(=O)CC=C[C@@H](C)[C@H](OC)COC(=O)[C@@H](C)COC(=O)CC=C[C@H]1C registered its composite z-score at -0.844
